tested on: 786-0 renal; experiment: NCI tumour cell line growth inhibition, 48 h
Please go through the items and note down their TGI.

-- ask Reported TGI for Nc1nc2c(nc(N)n2Cc2ccccc2)c(=O)[nH]1 : what is it?
-- reply > 100 µM

-- ask Reported TGI for CCCCC#COS(=O)(=O)c1ccc(C)cc1 : what is it?
-- reply > 100 µM

-- ask Reported TGI for CN([O-])c1nc(N(C)[O-])nc(N2CCOCC2)n1.CN([O-])c1nc(N(C)[OH2+])nc(N2CCOCC2)n1.[Fe+3] : what is it?
-- reply > 100 µM

-- ask Reported TGI for CNC(=O)N(C1=NCC(C)S1)c1ccc(C)c(C)c1 (stereo unspecified) : what is it?
-- reply > 48.8 µM

-- ask Reported TGI for CN(C)c1ccc(/C=C2\Oc3ccccc3C2=O)cc1 : what is it?
-- reply > 100 µM

-- ask Reported TGI for CNc1nc(SC)nc2c1c(N)nn2C : what is it?
-- reply > 100 µM

* * *

system: UO-31 renal; assay: NCI tumour cell line growth inhibition, 48 h
attribute-measured: TGI

-- ask Reported TGI for FC(F)(F)C1(Cl)C(Cl)(c2ccccc2)C1(Cl)c1ccccc1 (configuration not stated) : what is it?
-- reply 28.1 µM

-- ask Reported TGI for COc1ccc(/C=C2/N=C(N/N=C\C(O)C(O)C(O)C(O)CO)NC2=O)cc1 (configuration not stated) : what is it?
-- reply > 100 µM

-- ask Reported TGI for O=C(O)C(Cc1c[nH]c2ccccc12)C(=O)NO (configuration not stated) : what is it?
-- reply > 100 µM

-- ask Reported TGI for CN(C)c1ccc(/C=C/c2ccc3ccccc3[n+]2C)cc1 : what is it?
-- reply 9.62 µM

-- ask Reported TGI for S=C1NCN2CCN(CC2)CNC(=S)C(=S)NCN2CCN(CC2)CNC1=S : what is it?
-- reply > 100 µM

-- ask Reported TGI for CCCCOC(=O)NC(Nc1ccc(S(N)(=O)=O)cc1)(C(F)(F)F)C(F)(F)F : what is it?
-- reply > 100 µM

-- ask Reported TGI for COc1cc(C2c3[nH]c4ccccc4c3[C@@H](Nc3ccc(F)cc3)[C@H]3COC(=O)N23)cc(OC)c1O (some centres not stated) : what is it?
-- reply 2.67 µM

* * *

Please go through the items and note down their TGI.
test system: SN12C renal; test: NCI tumour cell line growth inhibition, 48 h

-- ask Reported TGI for C=CC(=O)NC(O)(C(=O)OCC)C(F)(F)F (stereo not given) : what is it?
-- reply > 100 µM

-- ask Reported TGI for CCCCCCC[C@@H](O)CC(=O)NC(CC(C)C)C(=O)NC(CCC(=O)O)C(=O)NC1C(=O)NC(C(C)C)C(=O)NC(CC(C)C)C(=O)NC(CO)C(=O)NC(CC(C)C)C(=O)NC(CO)C(=O)NC(C(C)CC)C(=O)OC1C (stereo not given in full) : what is it?
-- reply 29.5 µM

-- ask Reported TGI for CC1CN1C1=CC(=O)c2c(c(CO)cn2C)C1=O (stereo not given) : what is it?
-- reply 1.28 µM

-- ask Reported TGI for CCCCCCNC(=O)Nc1ccc2cc3ccc(NC(=O)NCCCCCC)cc3nc2c1 : what is it?
-- reply 2.51 µM

-- ask Reported TGI for CNC(=O)N(C1=NCC(C)S1)c1ccc(C)c(C)c1 (stereo not given) : what is it?
-- reply > 87.2 µM

-- ask Reported TGI for CC(=O)SSC1(Cl)C(C)(C)C(Cl)(SSC(C)=O)C1(C)C (stereo not given) : what is it?
-- reply > 100 µM

-- ask Reported TGI for NC(=O)C1(c2ccccc2)Nc2ccccc2S1 (stereo not given) : what is it?
-- reply > 100 µM

-- ask Reported TGI for CC(C)C(=O)N1C(=O)O[C@@H](c2ccccc2)[C@H]1C : what is it?
-- reply > 100 µM

-- ask Reported TGI for N#CC(=N)c1ncn(CCO)c1NC(=O)C(F)(F)F : what is it?
-- reply > 100 µM

-- ask Reported TGI for CCOc1cc2c[n+](C)c3c4cc(OC)c(OC)cc4ccc3c2cc1OC : what is it?
-- reply > 100 µM

-- ask Reported TGI for NC(=O)c1cccc(N2Cc3ccccc3OC3=C2C(=O)c2c(O)ccc(O)c2C3=O)c1 : what is it?
-- reply 3.4 µM

-- ask Reported TGI for CNc1nc(SC)nc2c1c(N)nn2C : what is it?
-- reply > 100 µM

-- ask Reported TGI for COC(=O)C(N)CSC(c1ccccc1)(c1ccccc1)c1ccccc1 (stereo not given) : what is it?
-- reply > 100 µM

-- ask Reported TGI for c1ccc2cc(CN3CCC(C4CCN(Cc5ccc6ccccc6c5)CC4)CC3)ccc2c1 : what is it?
-- reply 44.5 µM

-- ask Reported TGI for Cc1cc(-c2no[n+]([O-])c2-c2cc(C)sc2S(C)(=O)=O)c(S(C)(=O)=O)s1 : what is it?
-- reply > 100 µM
